Assay: Cytotoxicity assay (CellTiter-Glo) on normal human dermal fibroblasts
Format: cell-based
Conditions: normal human dermal fibroblasts (NHDF), 10 μM, untreated control = 100%, read-out: NHDF Viability 10 μM
Assign viability at 72 h, 10 µM to each entry below.
Give bare numbers, in %.

Quick request: viability at 72 h, 10 µM for each listed item, please.
1. O=C(OC[C@H]1CCNC1)[C@@H]1[C@H]2C[C@H]3c4[nH]c5ccccc5c4CCN3C[C@@H]2CC[C@@H]1O [Compound 4j]
2. O=C(NC1CNC1)[C@@H]1[C@H]2C[C@H]3c4[nH]c5ccccc5c4CCN3C[C@@H]2CC[C@@H]1O [Compound 5b]
3. O=C(O[C@H]1CCOC1)[C@@H]1[C@H]2C[C@H]3c4[nH]c5ccccc5c4CCN3C[C@@H]2CC[C@@H]1O [Compound 4q]

[out]
1: 102; 2: 88; 3: 112

###

Test: in vitro
Type: in vitro ADME
Conditions: human, Caco-2; 5 μM, pH 7.4/7.4, 3 h; read-out: Caco-2 permeability Papp A–B
property: Papp A→B at 3 h, 5 µM
Reply with a number, then the unit it belongs to.

Quick request: Papp A→B at 3 h, 5 µM for each listed item, please.
1. N[C@H]1C[C@@H](OC(=O)[C@@H]2[C@H]3C[C@H]4c5[nH]c6ccccc6c5CCN4C[C@@H]3CC[C@@H]2O)C1
2. O=C(OC1CNC1)[C@@H]1[C@H]2C[C@H]3c4[nH]c5ccccc5c4CCN3C[C@@H]2CC[C@@H]1O
3. O=C(O[C@H]1CCNC1)[C@@H]1[C@H]2C[C@H]3c4[nH]c5ccccc5c4CCN3C[C@@H]2CC[C@@H]1O
4. O=C(O[C@@H]1CCNC1)[C@@H]1[C@H]2C[C@H]3c4[nH]c5ccccc5c4CCN3C[C@@H]2CC[C@@H]1O
5. O=C(OC1CCNCC1)[C@@H]1[C@H]2C[C@H]3c4[nH]c5ccccc5c4CCN3C[C@@H]2CC[C@@H]1O

[out]
["1 ×10⁻⁶ cm/s", "1 ×10⁻⁶ cm/s", "1 ×10⁻⁶ cm/s", "1 ×10⁻⁶ cm/s", "1 ×10⁻⁶ cm/s"]

For `N[C@H]1C[C@H](OC(=O)[C@@H]2[C@H]3C[C@H]4c5[nH]c6ccccc6c5CCN4C[C@@H]3CC[C@@H]2O)C1` the compound record lists Papp A→B at 3 h, 5 µM as 3 ×10⁻⁶ cm/s

###

Assign viability at 72 h, 10 µM to each entry below.
Assay: Cytotoxicity assay (CellTiter-Glo) on normal human dermal fibroblasts
Type: cell-based
Conditions: normal human dermal fibroblasts (NHDF), 10 uM, read-out: NHDF viability at 10 uM (supplement csv)
Give bare numbers, in %.

Example compounds with recorded viability at 72 h, 10 µM:
1) O=C(OC1CCCC1)[C@@H]1[C@H]2C[C@H]3c4[nH]c5ccccc5c4CCN3C[C@@H]2CC[C@@H]1O; 113
2) COC(=O)[C@@H]1[C@H]2C[C@H]3c4[nH]c5ccccc5c4CCN3C[C@@H]2CC[C@@H]1O [Compound 1, Yohimbine, reference compound]; 105
3) O=C(OC1CCCNC1)[C@@H]1[C@H]2C[C@H]3c4[nH]c5ccccc5c4CCN3C[C@@H]2CC[C@@H]1O (stereo partly drawn); 82

Quick request: viability at 72 h, 10 µM for each listed item, please.
1. O=C(OCC1CNC1)[C@@H]1[C@H]2C[C@H]3c4[nH]c5ccccc5c4CCN3C[C@@H]2CC[C@@H]1O
2. O=C(OC[C@@H]1CCN1)[C@@H]1[C@H]2C[C@H]3c4[nH]c5ccccc5c4CCN3C[C@@H]2CC[C@@H]1O
3. O=C(OC1COC1)[C@@H]1[C@H]2C[C@H]3c4[nH]c5ccccc5c4CCN3C[C@@H]2CC[C@@H]1O

[out]
[119, 118, 102]
